Taken from PubChem BioAssay AID1963868.

- System: KRAS PDC tumor spheroids (HUVEC+MSC), viability
- protocolText: Anticancer human tumor 254851-301-R-J1-PDC patient-derived colon carcinoma cell line growth inhibition [KRAS2]
- measurementParameters: compound alone; run of 07/26/2021
Kindly supply the reported IC50 values for the records listed here.

input: # returns recorded IC50 (system: KRAS PDC tumor spheroids (HUVEC+MSC), viability) for COc1cc2nc(C)nc(NC(C)c3cc(N)cc(C(F)(F)F)c3)c2cc1OC1CCOC1 (centres undefined)
output: > 10 µM

input: Lookup CNCc1ccccc1-c1csc(C(C)Nc2nc(C)nc3cc(OC)c(OC)cc23)c1 (centres undefined)
output: 2.42 µM [middle of 6 runs]

input: Lookup C=CC(=O)N1CCN(c2nc(=O)n(-c3c(C)ccnc3C(C)C)c3nc(-c4c(O)cccc4F)c(F)cc23)C(C)C1 (centres undefined)
output: > 10 µM

input: Lookup C=CC(=O)N1CCN(c2nc(OCC3CCCN3C)nc3c2CCN(c2cccc4cccc(C)c24)C3)CC1CC#N (centres undefined)
output: > 3.16 µM

* * *

- System: KRAS PDC tumor spheroids (HUVEC+MSC), viability
- protocolText: Anticancer human tumor 254851-301-R-J1-PDC cell line growth inhibition [KRAS2];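 further: spheroids exposed to compounds for seven days before readout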;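 on viability, T/C: 100% = DMSO vehicle control luminescence of the spheroids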
- measurementParameters: second compound 0.1 µM; first compound 0.00316 µM; stronger effect = lower value
measuredQuantity: viability, T/C (%)
Write the value in % as a bare number.

input: # get_value(readout='viability, T/C', item= CC(=O)Nc1cccc(-n2c(=O)n(C3CC3)c(=O)c3c(Nc4ccc(I)cc4F)n(C)c(=O)c(C)c32)c1 + C=CC(=O)N1CCN(c2nc(=O)n(-c3c(C)ccnc3C(C)C)c3nc(-c4c(O)cccc4F)c(F)cc23)C(C)C1 )
output: 84.4

input: Lookup Cn1ncnc1[C@H]1c2n[nH]c(=O)c3cc(F)cc(c23)N[C@@H]1c1ccc(F)cc1 + C=CC(=O)N1CCN(c2nc(=O)n(-c3c(C)ccnc3C(C)C)c3nc(-c4c(O)cccc4F)c(F)cc23)C(C)C1
output: 99.2

input: Lookup CCN1CCN(Cc2ccc(Nc3ncc(F)c(-c4cc(F)c5nc(C)n(C(C)C)c5c4)n3)nc2)CC1 + C=CC(=O)N1CCN(c2nc(OCC3CCCN3C)nc3c2CCN(c2cccc4cccc(C)c24)C3)CC1CC#N
output: 98.9

* * *

Kindly supply the reported viability, T/C values for the records listed here.
- Tested on: KRAS PDC tumor spheroids (HUVEC+MSC), viability
- protocolText: Anticancer human tumor 254851-301-R-J1-PDC cell line growth inhibition [KRAS2];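 further: spheroids exposed to compounds for seven days before readout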;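 on viability, T/C: 100% = DMSO vehicle control luminescence of the spheroids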
- measurementParameters: second compound 0.1 µM; first compound 0.000316 µM; stronger effect = lower value
Write the value in % as a bare number.

input: # get_value(readout='viability, T/C', item= Cn1ncnc1[C@H]1c2n[nH]c(=O)c3cc(F)cc(c23)N[C@@H]1c1ccc(F)cc1 + CC1OCC2(CCN(c3cnc(Sc4ccnc(N)c4Cl)c(N)n3)CC2)C1N )
output: 98

input: Lookup CN(C)C/C=C/C(=O)Nc1cc2c(Nc3ccc(F)c(Cl)c3)ncnc2cc1O[C@H]1CCOC1 + COc1cc2nc(C)nc(NC(C)c3cc(N)cc(C(F)(F)F)c3)c2cc1OC1CCOC1
output: 104

input: Lookup CN(C)C/C=C/C(=O)Nc1cc2c(Nc3ccc(F)c(Cl)c3)ncnc2cc1O[C@H]1CCOC1 + C=CC(=O)N1CCN(c2nc(=O)n(-c3c(C)ccnc3C(C)C)c3nc(-c4c(O)cccc4F)c(F)cc23)C(C)C1
output: 110

input: Lookup CN(C)C/C=C/C(=O)Nc1cc2c(Nc3ccc(F)c(Cl)c3)ncnc2cc1O[C@H]1CCOC1 + CNCc1ccccc1-c1csc(C(C)Nc2nc(C)nc3cc(OC)c(OC)cc23)c1
output: 99.9

input: Lookup CC(C)n1nc(-c2ccc3oc(N)nc3c2)c2c(N)ncnc21 + CNCc1ccccc1-c1csc(C(C)Nc2nc(C)nc3cc(OC)c(OC)cc23)c1
output: 110

* * *

- Test system: KRAS PDC tumor spheroids (HUVEC+MSC), viability
- protocolText: Anticancer human tumor 254851-301-R-J1-PDC cell line growth inhibition [KRAS2];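 further: spheroids exposed to compounds for seven days before readout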;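 on viability, T/C: 100% = DMSO vehicle control luminescence of the spheroids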
- measurementParameters: second compound 0.316 µM; first compound 0.00316 µM; stronger effect = lower value
Cut-off 90% on viability, T/C: below means rule met, at or above means rule not met.

input: Say whether its viability, T/C is strictly beneath 90%. Entry: CC(C)n1nc(-c2ccc3oc(N)nc3c2)c2c(N)ncnc21 + CNCc1ccccc1-c1csc(C(C)Nc2nc(C)nc3cc(OC)c(OC)cc23)c1
output: rule met

input: Lookup Cn1ncnc1[C@H]1c2n[nH]c(=O)c3cc(F)cc(c23)N[C@@H]1c1ccc(F)cc1 + CC1OCC2(CCN(c3cnc(Sc4ccnc(N)c4Cl)c(N)n3)CC2)C1N
output: rule met

input: Lookup CCN1CCN(Cc2ccc(Nc3ncc(F)c(-c4cc(F)c5nc(C)n(C(C)C)c5c4)n3)nc2)CC1 + COc1cc2nc(C)nc(NC(C)c3cc(N)cc(C(F)(F)F)c3)c2cc1OC1CCOC1
output: rule not met

* * *

Kindly supply the reported pIC50 values for the records listed here.
- System: KRAS PDC tumor spheroids (HUVEC+MSC), viability
- protocolText: Anticancer human tumor 254851-301-R-J1-PDC cell line growth inhibition [KRAS2];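 further: spheroids exposed to compounds for seven days before readout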
- measurementParameters: curve of first compound; second compound 1 µM
Expect pIC50 as a plain number equal to -log10 of the molar concentration.

input: # get_value(readout='pIC50', item= CC1COCCN1c1cc(-c2ccnn2C)c2ccnc(-c3ccn[nH]3)c2n1 (stereo unspecified) + CC1OCC2(CCN(c3cnc(Sc4ccnc(N)c4Cl)c(N)n3)CC2)C1N )
output: 6.50

input: Lookup CCN1CCN(Cc2ccc(Nc3ncc(F)c(-c4cc(F)c5nc(C)n(C(C)C)c5c4)n3)nc2)CC1 + C=CC(=O)N1CCN(c2nc(OCC3CCCN3C)nc3c2CCN(c2cccc4cccc(C)c24)C3)CC1CC#N
output: 6.88

input: Lookup CC1COCCN1c1cc(-c2ccnn2C)c2ccnc(-c3ccn[nH]3)c2n1 (stereo unspecified) + C=CC(=O)N1CCN(c2nc(=O)n(-c3c(C)ccnc3C(C)C)c3nc(-c4c(O)cccc4F)c(F)cc23)C(C)C1
output: 6.43

input: Lookup CC(C)n1nc(-c2ccc3oc(N)nc3c2)c2c(N)ncnc21 + C=CC(=O)N1CCN(c2nc(=O)n(-c3c(C)ccnc3C(C)C)c3nc(-c4c(O)cccc4F)c(F)cc23)C(C)C1
output: 7.88

input: Lookup COc1cc(Nc2ncc3c(n2)-c2ccc(Cl)cc2C(c2c(F)cccc2OC)=NC3)ccc1C(=O)O + CNCc1ccccc1-c1csc(C(C)Nc2nc(C)nc3cc(OC)c(OC)cc23)c1
output: 7.06

* * *

- Test system: KRAS PDC tumor spheroids (HUVEC+MSC), viability
- protocolText: Anticancer human tumor 254851-301-R-J1-PDC cell line growth inhibition [KRAS2];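 further: spheroids exposed to compounds for seven days before readout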;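 on viability, T/C: 100% = DMSO vehicle control luminescence of the spheroids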
- measurementParameters: second compound 0.316 µM; first compound 0.001 µM; stronger effect = lower value
Kindly supply the reported viability, T/C values for the records listed here.
Write the value in % as a bare number.

input: # get_value(readout='viability, T/C', item= Cn1ncnc1[C@H]1c2n[nH]c(=O)c3cc(F)cc(c23)N[C@@H]1c1ccc(F)cc1 + C=CC(=O)N1CCN(c2nc(OCC3CCCN3C)nc3c2CCN(c2cccc4cccc(C)c24)C3)CC1CC#N )
output: 104

input: Lookup CC(=O)Nc1cccc(-n2c(=O)n(C3CC3)c(=O)c3c(Nc4ccc(I)cc4F)n(C)c(=O)c(C)c32)c1 + C=CC(=O)N1CCN(c2nc(=O)n(-c3c(C)ccnc3C(C)C)c3nc(-c4c(O)cccc4F)c(F)cc23)C(C)C1
output: 87.9

input: Lookup Cn1ncnc1[C@H]1c2n[nH]c(=O)c3cc(F)cc(c23)N[C@@H]1c1ccc(F)cc1 + C=CC(=O)N1CCN(c2nc(=O)n(-c3c(C)ccnc3C(C)C)c3nc(-c4c(O)cccc4F)c(F)cc23)C(C)C1
output: 97.9

input: Lookup Cn1ncnc1[C@H]1c2n[nH]c(=O)c3cc(F)cc(c23)N[C@@H]1c1ccc(F)cc1 + CNCc1ccccc1-c1csc(C(C)Nc2nc(C)nc3cc(OC)c(OC)cc23)c1
output: 95.6

input: Lookup CN(C)C/C=C/C(=O)Nc1cc2c(Nc3ccc(F)c(Cl)c3)ncnc2cc1O[C@H]1CCOC1 + CC1OCC2(CCN(c3cnc(Sc4ccnc(N)c4Cl)c(N)n3)CC2)C1N
output: 84.3

input: Lookup CN(C)C/C=C/C(=O)Nc1cc2c(Nc3ccc(F)c(Cl)c3)ncnc2cc1O[C@H]1CCOC1 + C=CC(=O)N1CCN(c2nc(OCC3CCCN3C)nc3c2CCN(c2cccc4cccc(C)c24)C3)CC1CC#N
output: 97.8

input: Lookup CC(C)n1nc(-c2ccc3oc(N)nc3c2)c2c(N)ncnc21 + COc1cc2nc(C)nc(NC(C)c3cc(N)cc(C(F)(F)F)c3)c2cc1OC1CCOC1
output: 100

input: Lookup CN(C)C/C=C/C(=O)Nc1cc2c(Nc3ccc(F)c(Cl)c3)ncnc2cc1O[C@H]1CCOC1 + CNCc1ccccc1-c1csc(C(C)Nc2nc(C)nc3cc(OC)c(OC)cc23)c1
output: 98.3

input: Lookup Cn1ncnc1[C@H]1c2n[nH]c(=O)c3cc(F)cc(c23)N[C@@H]1c1ccc(F)cc1 + CC1OCC2(CCN(c3cnc(Sc4ccnc(N)c4Cl)c(N)n3)CC2)C1N
output: 93.8

input: Lookup CC(=O)Nc1cccc(-n2c(=O)n(C3CC3)c(=O)c3c(Nc4ccc(I)cc4F)n(C)c(=O)c(C)c32)c1 + CNCc1ccccc1-c1csc(C(C)Nc2nc(C)nc3cc(OC)c(OC)cc23)c1
output: 87.1

input: Lookup Cn1ncnc1[C@H]1c2n[nH]c(=O)c3cc(F)cc(c23)N[C@@H]1c1ccc(F)cc1 + COc1cc2nc(C)nc(NC(C)c3cc(N)cc(C(F)(F)F)c3)c2cc1OC1CCOC1
output: 100

input: Lookup CC(C)n1nc(-c2ccc3oc(N)nc3c2)c2c(N)ncnc21 + CC1OCC2(CCN(c3cnc(Sc4ccnc(N)c4Cl)c(N)n3)CC2)C1N
output: 99.7

input: Lookup CC(C)n1nc(-c2ccc3oc(N)nc3c2)c2c(N)ncnc21 + C=CC(=O)N1CCN(c2nc(OCC3CCCN3C)nc3c2CCN(c2cccc4cccc(C)c24)C3)CC1CC#N
output: 115

input: Lookup CC(=O)Nc1cccc(-n2c(=O)n(C3CC3)c(=O)c3c(Nc4ccc(I)cc4F)n(C)c(=O)c(C)c32)c1 + CC1OCC2(CCN(c3cnc(Sc4ccnc(N)c4Cl)c(N)n3)CC2)C1N
output: 87.3

input: Lookup CN(C)C/C=C/C(=O)Nc1cc2c(Nc3ccc(F)c(Cl)c3)ncnc2cc1O[C@H]1CCOC1 + C=CC(=O)N1CCN(c2nc(=O)n(-c3c(C)ccnc3C(C)C)c3nc(-c4c(O)cccc4F)c(F)cc23)C(C)C1
output: 102

input: Lookup CC(C)n1nc(-c2ccc3oc(N)nc3c2)c2c(N)ncnc21 + CNCc1ccccc1-c1csc(C(C)Nc2nc(C)nc3cc(OC)c(OC)cc23)c1
output: 105

input: Lookup CC(=O)Nc1cccc(-n2c(=O)n(C3CC3)c(=O)c3c(Nc4ccc(I)cc4F)n(C)c(=O)c(C)c32)c1 + C=CC(=O)N1CCN(c2nc(OCC3CCCN3C)nc3c2CCN(c2cccc4cccc(C)c24)C3)CC1CC#N
output: 93.5
